- protocol.summary: Cmax (Tissue distribution) of compound was determined at a dose of 5 mg/kg in human
- Assay type: ADME, organism-based
- Set-up: dose 5 mg/kg
- cond: in vivo

>  <cpd.smiles>
CCCCCCCCCCNCCN[C@@]1(C)C[C@H](O[C@H]2[C@H](Oc3c4cc5cc3Oc3ccc(cc3Cl)[C@@H](O)[C@@H](NC(=O)[C@@H](CC(C)C)NC)C(=O)N[C@@H](CC(N)=O)C(=O)N[C@H]5C(=O)N[C@H]3C(=O)N[C@H](C(=O)N[C@H](C(=O)O)c5cc(O)c(CNCP(=O)(O)O)c(O)c5-c5cc3ccc5O)[C@H](O)c3ccc(c(Cl)c3)O4)O[C@H](CO)[C@@H](O)[C@@H]2O)O[C@@H](C)[C@H]1O

>  <Cmax (ng/mL)>
45000

$$$$
